system: HOP-92 NSCLC; test: NCI tumour cell line growth inhibition, 48 h
Below, each entry is listed with its recorded GI50.

{"columns": ["Query Smiles", "GI50"],
 "data": [
  ["Cc1ccc2[nH]c(O)c(N=Nc3ccc(S(N)(=O)=O)cc3)c2c1", "> 25 µM"],
  ["CC(C)C[C@H](NC(=O)/C=C/Cn1ccc2ccccc2c1=O)B(O)O", "6.49 µM"],
  ["Cn1c(=O)c(Cc2ccccc2F)cc2cnc(NC3CCOCC3)nc21", "4.91 µM"],
  ["CN(C)c1cc[c]([Sn]([c]2ccc(N(C)C)cc2)([c]2ccc(N(C)C)cc2)[c]2ccc(N(C)C)cc2)cc1", "8.08 µM"],
  ["CC(=O)N[C@H]1CSSC[C@@H](C(N)=O)NC(=O)[C@H](C(C)C)NC(=O)[C@H](C)NC(=O)[C@H](Cc2cnc[nH]2)NC1=O", "> 100 µM"]
]}

====

system: CCRF-CEM leukemia; assay: NCI tumour cell line growth inhibition, 48 h
Below, each entry is listed with its recorded TGI.

{"columns": ["Query Smiles", "TGI"],
 "data": [
  ["C[C@H](O)C(=O)N1CCC(CCn2c(Sc3cc4c(cc3Br)OCO4)nc3c(N)ncnc32)CC1", "> 100 µM"],
  ["NC(=O)NCc1c(C(N)=O)ncn1Cc1ccccc1", "> 100 µM"],
  ["CN(C)C(=O)[C@H](O)[C@H](Cc1ccccc1)NC(=O)c1cc2cc(Cl)ccc2[nH]1", "> 100 µM"]
]}

====

tested on: A498 renal; experiment: NCI tumour cell line growth inhibition, 48 h
Below, each entry is listed with its recorded TGI.

{"columns": ["Compound", "System Tested", "TGI"],
 "data": [
  ["CN1[C@@H]2C[C@@H](OC(=O)[C@H](CO)c3ccccc3)C[C@H]1[C@@H]1O[C@@H]12", "A498 renal", "> 100 µM"],
  ["Clc1ccc(C=Nc2ccc3c(c2)Cc2ccccc2-3)c(Cl)c1", "A498 renal", "> 100 µM"],
  ["CC(C)=CCNc1ncnc2c1ncn2CCC#N", "A498 renal", "> 100 µM"],
  ["C=CCOc1ccc(C2(O)c3ccccc3C3=NCCCN32)cc1 (stereo unspecified)", "A498 renal", "> 100 µM"],
  ["Br[C](Br)(Br)[Hg][c]1ccccc1", "A498 renal", "30 µM"],
  ["C[C@H](O)C(=O)N1CCC(CCn2c(Sc3cc4c(cc3Br)OCO4)nc3c(N)ncnc32)CC1", "A498 renal", "> 100 µM"]
]}

====

Below, each entry is listed with its recorded TGI.
test system: LOX IMVI melanoma; assay: NCI tumour cell line growth inhibition, 48 h
Attribute Measured: TGI

{"columns": ["Molecule", "Reported Result"],
 "data": [
  ["OCc1ccc(C2CC(c3ccco3)=NN2c2ccccc2)o1 (centres undefined)", "> 100 µM"],
  ["NNC(=O)CSc1nc2ccccc2c(=O)n1N", "> 100 µM"],
  ["O=NN(CCCl)C(=O)NC1CCC(O)CC1 (centres undefined)", "> 60.6 µM"],
  ["COc1cc(C(=O)c2cc(C)c3[nH]c4ccc(C)cc4c3c2C)cc(OC)c1OC", "> 100 µM"],
  ["Nc1ccn(C2CCC(CO)O2)c(=O)n1 (centres undefined)", "> 1000 µM"],
  ["O=C1OC2CCCC[C@@H]2C2C[C@]34CCCCC3[C@@H](C(=O)O4)C12 (some centres undefined)", "> 100 µM"],
  ["O=C(O)C1C(Br)(c2ccccc2)C1(Br)c1ccccc1 (centres undefined)", "> 100 µM"],
  ["Oc1cccc(-c2nc3cc(F)ccc3s2)c1", "34.7 µM"],
  ["CC1CCCC(CC(=O)O)(CC(=O)O)C1 (centres undefined)", "> 100 µM"],
  ["[N-]=[N+]=NC1=C(c2ccccn2)C(=O)c2cccc3cccc1c23", "> 100 µM"],
  ["CCn1c(SCc2ccc(C)cc2)nnc1-c1nn(-c2ccc(Cl)cc2Cl)c(-c2ccc(Cl)cc2)c1C", "10.7 µM"],
  ["O=c1c(C(c2ccc(Cl)cc2)c2c(O)c3ccccc3n(-c3ccccc3)c2=O)c(O)c2ccccc2n1-c1ccccc1", "> 100 µM"],
  ["C=C1CCC(CC[C@@H]2CC[C@]3(OC2)O[C@@]2(O)CC[C@]3(C)OC2(C)C)C(C)(C)[C@H]1C/C=C1/C(=O)OC[C@@H]1O (some centres undefined)", "1.88 µM"],
  ["CC1(C)[C@@H](OC(N)=O)[C@H]2O[C@H]2[C@]2(C=O)[C@H]3CC[C@]4(C)[C@@H](c5ccc(=O)oc5)[C@@H](Cl)C[C@]4(O)C3=CC[C@@H]12", "0.00886 µM"],
  ["CSC(C1c2ccccc2N(c2ccc(C)cc2)c2[nH]c(=O)n(C)c(=O)c21)S(=O)(=O)c1ccc(C)cc1 (centres undefined)", "> 100 µM"],
  ["Nc1ccc(S2(c3ccc(N)cc3)C=C(c3ccccc3)C(c3ccccc3)=C2)cc1", "> 100 µM"],
  ["Nc1ccc(C(=O)N2CCC[C@H]2CO)c(N)c1", "> 100 µM"],
  ["CC(=O)C(=CN1CCN(C(=O)c2ccco2)C1=S)C(C)=O", "4.62 µM"],
  ["C/C(N=NC(=S)N(C)C)=C1\\C=CC=CN1O", "> 100 µM"],
  ["COC(=O)C1=C(C)NC(C)=C(C(=O)OC)C1c1nc2sccn2c1[N+](=O)[O-]", "> 100 µM"],
  ["CC1=C[C@H]2c3c(c(O)c(O)c4oc(-c5ccccc5)cc(=O)c34)[C@H](c3cc(O)c(O)c4oc(-c5ccccc5)cc(=O)c34)[C@H]2C(C)(C)C1", "1.33 µM"],
  ["COc1ccc(C(=O)COc2ccc(/C=C3\\COc4ccc(OC)cc4C3=O)cc2)cc1", "24.2 µM"],
  ["COc1ccc(C2OC(c3ccncc3)=NN2C)cc1OC (centres undefined)", "> 100 µM"],
  ["Cc1ncc(CCCN(C)C)cc1Nc1ncc2c(n1)-c1ccc(C(F)(F)F)cc1NC(=S)C2", "15.1 µM"]
]}
